assay.protocol: PermeaPad 96-well plate permeability assay (absence of mucus)
Assay type: in vitro ADME
condition.set: not told, pH 7.4, PermeaPad without mucus, 5 h; extremes of measured range; trametinib value set because below limit of detection; read-out: apparent permeability (Papp)
property.label: Papp at 5 h (×10⁻⁶ cm/s)

I. CC(=O)Nc1cccc(-n2c(=O)n(C3CC3)c(=O)c3c(Nc4ccc(I)cc4F)n(C)c(=O)c(C)c32)c1 [Trametinib]
II. O=C(Nc1c(Cl)cncc1Cl)c1ccc(OC(F)F)c(OCC2CC2)c1 [Roflumilast]
Pick one: I or II . Which has the bigger Papp at 5 h number? Selection: enter the item's label.
II

###

assay.protocol: PermeaPad + mucus permeability assay (cystic fibrosis mucus model on PermeaPad 96-well plate)
Type: in vitro ADME
condition.set: not told; PermeaPad + mucus model; donor 100 or 500 µM in 10 mM PB pH 7.4, 5% DMSO; single timepoint 5 h; mean (±SD), n>=3; read-out: Papp mucus ± SD • 10^6
property.label: Papp at 5 h (×10⁻⁶ cm/s)

Previously resolved entries follow.
compound	Papp at 5 h, ×10⁻⁶ cm/s
CO[C@H]1/C=C/O[C@@]2(C)Oc3c(C)c(O)c4c(O)c(c(/C=N/N5CCN(C)CC5)c(O)c4c3C2=O)NC(=O)/C(C)=C\C=C\[C@H](C)[C@H](O)[C@@H](C)[C@@H](O)[C@@H](C)[C@H](OC(C)=O)[C@@H]1C	0.71
CN(C)[C@@H]1C(O)=C(C(N)=O)C(=O)[C@@]2(O)C(O)=C3C(=O)c4c(O)cccc4[C@@](C)(O)[C@H]3C[C@@H]12	0.2

a. CN(C)C(=O)COC(=O)Cc1ccc(OC(=O)c2ccc(NC(=N)N)cc2)cc1
b. CC(C)Cc1ccc(C(C)C(=O)O)cc1 (stereo not shown)
// returns a or b , whichever has the lower Papp at 5 h Selection: enter the item's label.
a

###

assay.protocol: PermeaPad + mucus permeability assay (cystic fibrosis mucus model on PermeaPad 96-well plate)
Type: in vitro ADME
condition.set: Papp vs. Papp mucus, Student's t-test, significance at p < 0.05
property.label: Effect of mucus on Papp

Previously resolved entries follow.
compound	measurement
CC(C)(C)NCC(O)c1ccc(O)c(CO)c1 (stereo not shown) [Salbutamol]	Reduced
CC(=O)Nc1cccc(-n2c(=O)n(C3CC3)c(=O)c3c(Nc4ccc(I)cc4F)n(C)c(=O)c(C)c32)c1 [Trametinib]	None
CN(C)[C@@H]1C(O)=C(C(N)=O)C(=O)[C@@]2(O)C(O)=C3C(=O)c4c(O)cccc4[C@@](C)(O)[C@H]3C[C@@H]12 [Tetracycline]	Reduced
CC(=O)Nc1ccc(O)cc1 [Acetaminophen]	Reduced
O=C(Nc1c(Cl)cncc1Cl)c1ccc(OC(F)F)c(OCC2CC2)c1 [Roflumilast]	None
CO[C@H]1/C=C/O[C@@]2(C)Oc3c(C)c(O)c4c(O)c(c5c(nc6cc(C)ccn65)c4c3C2=O)NC(=O)/C(C)=C\C=C\[C@H](C)[C@H](O)[C@@H](C)[C@@H](O)[C@@H](C)[C@H](OC(C)=O)[C@@H]1C [Rifaximin]	None
O=C(O)c1ccccc1O [Salicylic acid]	None
CN(C)C(=O)COC(=O)Cc1ccc(OC(=O)c2ccc(NC(=N)N)cc2)cc1 [Camostat]	Reduced
CCS(=O)(=O)N1CC(CC#N)(n2cc(-c3ncnc4[nH]ccc34)cn2)C1 [Baricitinib]	Reduced
COC(=O)N[C@H](C(=O)N[C@@H](Cc1ccccc1)[C@@H](O)CN(Cc1ccc(-c2ccccn2)cc1)NC(=O)[C@@H](NC(=O)OC)C(C)(C)C)C(C)(C)C [Atazanavir]	None

Given the compound CCn1cc(C(=O)O)c(=O)c2cc(F)c(N3CCNCC3)cc21 [Norfloxacin] , what is its reported Effect of mucus on Papp?
None

Given the compound C=CC(=O)N1CCN(c2nc(=O)n(-c3c(C)ccnc3C(C)C)c3nc(-c4c(O)cccc4F)c(F)cc23)[C@@H](C)C1 [Sotorasib] , what is its reported Effect of mucus on Papp?
None

Given the compound CC(C)Cc1ccc(C(C)C(=O)O)cc1 (stereo not shown) [Ibuprofen] , what is its reported Effect of mucus on Papp?
None

Given the compound CCN(CC)CCOC(=O)c1ccc(N)cc1 [Procaine] , what is its reported Effect of mucus on Papp?
Reduced

Given the compound C[C@H]1[C@H](NC(=O)/C(=N\OC(C)(C)C(=O)O)c2csc(N)n2)C(=O)N1S(=O)(=O)O [Aztreonam] , what is its reported Effect of mucus on Papp?
None
